Exercise: state measured mean fluorescence intensity for each of the binders provided.
Target: his-labeled human IL-13 (immunogen A) (human) (UniProt P35225)
Assay: FACS blocking, biotin-IL-13 on IL-13Ra2 HEK293 cells; antibody at 0.27 nM
Answers are plain numbers.

Worked examples follow.
| BINDER | mean fluorescence intensity |
| --- | --- |
| c70F10A10 (mouse-human chimeric IL-13 antibody) (antibody, V domains shown) VH: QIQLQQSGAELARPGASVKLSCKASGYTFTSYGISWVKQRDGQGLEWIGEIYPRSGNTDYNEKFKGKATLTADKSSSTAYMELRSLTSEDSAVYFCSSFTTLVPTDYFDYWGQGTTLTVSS VL: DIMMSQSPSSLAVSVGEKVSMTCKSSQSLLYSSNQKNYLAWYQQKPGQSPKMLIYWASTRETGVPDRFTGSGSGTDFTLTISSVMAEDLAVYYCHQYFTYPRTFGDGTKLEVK | 78.4 |
| 35E2C3 (lead antibody, mouse hybridoma) (antibody, V domains shown, Mouse monoclonal antibody purified from hybridoma supernatant on Protein G) VH: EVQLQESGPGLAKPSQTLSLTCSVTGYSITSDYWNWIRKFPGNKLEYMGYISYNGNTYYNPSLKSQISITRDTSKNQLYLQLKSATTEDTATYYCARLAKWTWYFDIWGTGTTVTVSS VL: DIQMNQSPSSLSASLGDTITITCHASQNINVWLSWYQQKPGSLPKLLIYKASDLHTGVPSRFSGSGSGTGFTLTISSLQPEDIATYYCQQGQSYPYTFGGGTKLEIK | 53.2 |
| c35E2C3 (mouse-human chimeric IL-13 antibody) (antibody, V domains shown) VH: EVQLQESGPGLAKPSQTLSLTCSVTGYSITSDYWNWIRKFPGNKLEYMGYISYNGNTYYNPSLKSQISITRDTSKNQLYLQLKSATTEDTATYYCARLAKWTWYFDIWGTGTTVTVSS VL: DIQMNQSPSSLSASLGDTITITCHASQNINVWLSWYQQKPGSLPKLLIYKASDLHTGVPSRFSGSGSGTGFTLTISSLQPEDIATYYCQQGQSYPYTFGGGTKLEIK | 63.8 |
| 29D9H8 (lead antibody, mouse hybridoma) (antibody, V domains shown, Mouse monoclonal antibody purified from hybridoma supernatant on Protein G) VH: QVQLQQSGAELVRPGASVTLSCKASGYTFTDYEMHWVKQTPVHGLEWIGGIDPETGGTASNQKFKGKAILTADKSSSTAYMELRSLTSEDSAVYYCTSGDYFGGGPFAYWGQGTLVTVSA VL: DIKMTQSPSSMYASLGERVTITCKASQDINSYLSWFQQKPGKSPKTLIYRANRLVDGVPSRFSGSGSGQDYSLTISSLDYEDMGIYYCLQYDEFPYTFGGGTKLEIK | 45.4 |

Let us examine a further case.
Please look at this binder and report its mean fluorescence intensity: c29D9H8 (mouse-human chimeric IL-13 antibody) (antibody, V domains shown) VH: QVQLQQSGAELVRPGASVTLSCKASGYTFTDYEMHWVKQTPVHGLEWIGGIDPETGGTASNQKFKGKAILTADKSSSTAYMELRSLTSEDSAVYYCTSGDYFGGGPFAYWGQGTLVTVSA VL: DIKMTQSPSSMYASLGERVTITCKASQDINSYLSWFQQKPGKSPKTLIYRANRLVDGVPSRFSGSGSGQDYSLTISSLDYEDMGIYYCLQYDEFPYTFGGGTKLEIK 56.3
